Target: HLA-B*57:01
Experiment: IEDB peptide-MHC binding, purified MHC/competitive/radioactivity; filed as Kd, often an IC50 or EC50 that approximates it; bounds were set here for any values at or beyond the usual limits of such assays
Settings: source organism: Dengue virus 2 Jamaica/1409/1983
endpoint: pKd
For clarity, pKd is expressed as the negative log10 of concentration in mol/L.

GAAFSGVSW = 7.64
SASSMVNGVV = 6.64
KATREAQKRA = 6.07
MAILGDTAW = 7.65

I have this sequence here, MLAVWNRVW , and I need its recorded pKd.
7.69

What do we get for ITAAAWYLW ?
9.32

----------
Molecular target: HLA-A*11:01
Test: IEDB peptide-MHC binding, purified MHC/direct/fluorescence; filed as Kd, often an IC50 or EC50 that approximates it; bounds were set here for any values at or beyond the usual limits of such assays
Conditions: source organism: Cowpox virus
pKd: −log10 of the molar value.
endpoint: pKd

Test system HLA-A*11:01; read-out pKd; what value for YTDLTYQSF ?
≤ 4.70

----------
Molecular target: HLA-A*01:01
Assay: IEDB peptide-MHC binding, purified MHC/competitive/fluorescence; filed as Kd, often an IC50 or EC50 that approximates it; bounds were set here for any values at or beyond the usual limits of such assays
Conditions: source organism: Escherichia coli F11
pKd: −log10 of the molar value.
endpoint: pKd

Request body: readout pKd, system HLA-A*01:01, query YTLNNGGAF . Return the value.
≤ 4.70

----------
Biological target: HLA-A*02:19
Test: IEDB peptide-MHC binding, purified MHC/competitive/fluorescence; filed as Kd, often an IC50 or EC50 that approximates it; bounds were set here for any values at or beyond the usual limits of such assays
Conditions: source organism: Mycobacterium tuberculosis variant bovis BCG str. Pasteur 1173P2
endpoint: Kd

Recorded Kd of DEGFHAATV , please.
≥ 20 µM

----------
Target: HLA-B*44:02
Assay: IEDB peptide-MHC binding, purified MHC/direct/fluorescence; filed as Kd, often an IC50 or EC50 that approximates it; bounds were set here for any values at or beyond the usual limits of such assays
Settings: source organism: Yersinia pestis
endpoint: Kd

Item LLIDDSFSS has what recorded Kd?
≥ 20 µM

----------
Molecular target: HLA-A*01:01
Assay: IEDB peptide-MHC binding, purified MHC/competitive/radioactivity; filed as Kd, often an IC50 or EC50 that approximates it; bounds were set here for any values at or beyond the usual limits of such assays
Conditions: source organism: Dengue virus 1 Singapore/S275/1990
endpoint: Kd (µM)
The reply should contain only the number, in µM.

EVDSFSLGL = 10.5

Please report the recorded Kd for ESEMIIPKIY .
6.21

----------
Molecular target: HLA-A*01:01
Experiment: IEDB peptide-MHC binding, purified MHC/competitive/fluorescence; filed as Kd, often an IC50 or EC50 that approximates it; bounds were set here for any values at or beyond the usual limits of such assays
Settings: source organism: Mycobacterium tuberculosis variant bovis BCG str. Pasteur 1173P2
endpoint: Kd

Name the reported Kd value associated with the sequence SPREECGVF
≥ 20 µM

----------
Biological target: HLA-B*44:03
Assay: IEDB peptide-MHC binding, purified MHC/competitive/radioactivity; filed as Kd, often an IC50 or EC50 that approximates it; bounds were set here for any values at or beyond the usual limits of such assays
Conditions: source organism: Dengue virus 1 Brazil/97-11/1997
endpoint: Kd (nM)
Number in nM, nothing else.

Any idea what its Kd is? The sequence is SQILLMRTTW
327

----------
Biological target: HLA-A*24:03
Assay: IEDB peptide-MHC binding, purified MHC/competitive/fluorescence; filed as Kd, often an IC50 or EC50 that approximates it; bounds were set here for any values at or beyond the usual limits of such assays
Settings: source organism: Entamoeba histolytica HM-1:IMSS
pKd: −log10 of the molar value.
endpoint: pKd

Would you mind telling me what pKd value was observed for KVSVGSYFC ?
≤ 4.70

----------
Molecular target: HLA-A*03:01
Assay: IEDB peptide-MHC binding, purified MHC/competitive/fluorescence; filed as Kd, often an IC50 or EC50 that approximates it; bounds were set here for any values at or beyond the usual limits of such assays
Conditions: source organism: Mycobacterium tuberculosis variant bovis BCG str. Pasteur 1173P2
pKd: −log10 of the molar value.
endpoint: pKd

# value lookup — system HLA-A*03:01, readout pKd, item DEGFHAATV
≤ 4.70

----------
Target: HLA-A*29:02
Assay: IEDB peptide-MHC binding, purified MHC/competitive/fluorescence; filed as Kd, often an IC50 or EC50 that approximates it; bounds were set here for any values at or beyond the usual limits of such assays
Conditions: source organism: Cryptosporidium parvum Iowa II
endpoint: pKd
pKd is defined as minus the log10 of a concentration measured in mol/L.

Sample MMGIILSKY — what was its pKd?
7.28

----------
Molecular target: HLA-A*11:01
Assay: IEDB peptide-MHC binding, purified MHC/competitive/fluorescence; filed as Kd, often an IC50 or EC50 that approximates it; bounds were set here for any values at or beyond the usual limits of such assays
Details: source organism: Escherichia coli 536
endpoint: Kd

# Kd lookup, item YQAENSTAE
≥ 5 µM

----------
Molecular target: HLA-B*53:01
Test: IEDB peptide-MHC binding, purified MHC/competitive/radioactivity; filed as Kd, often an IC50 or EC50 that approximates it; bounds were set here for any values at or beyond the usual limits of such assays
Details: source organism: Dengue virus 2 Peru/IQT2913/1996
endpoint: Kd (nM)
Numeric only. Scale: nM

Data request, read-out Kd, for TPVESWEEI
157

----------
Item-by-item account of Kd
Biological target: HLA-A*26:01
Experiment: IEDB peptide-MHC binding, purified MHC/direct/fluorescence; filed as Kd, often an IC50 or EC50 that approximates it; bounds were set here for any values at or beyond the usual limits of such assays
Details: source organism: Escherichia coli O157:H7

RVNKGTGVK = ≥ 20 µM
LQLTAVFAY = ≥ 20 µM

Query sequence follows.
GET /values?readout=Kd&item= KTTIKFHPW
≥ 20 µM

----------
Biological target: HLA-B*39:01
Assay: IEDB peptide-MHC binding, purified MHC/competitive/fluorescence; filed as Kd, often an IC50 or EC50 that approximates it; bounds were set here for any values at or beyond the usual limits of such assays
Details: source organism: Entamoeba histolytica HM-1:IMSS
pKd: −log10 of the molar value.
endpoint: pKd

Give its pKd value. Item: KVSVGSYFC
≤ 4.70

----------
Molecular target: HLA-B*44:02
Experiment: IEDB peptide-MHC binding, purified MHC/direct/fluorescence; filed as Kd, often an IC50 or EC50 that approximates it; bounds were set here for any values at or beyond the usual limits of such assays
Details: source organism: Dengue virus
endpoint: Kd

What Kd appears in the records for this sequence with HLA-B*44:02? GEDGCWYGM
≥ 20 µM

----------
Biological target: HLA-C*06:02
Assay: IEDB peptide-MHC binding, purified MHC/direct/fluorescence; filed as Kd, often an IC50 or EC50 that approximates it; bounds were set here for any values at or beyond the usual limits of such assays
Settings: source organism: Giardia lamblia ATCC 50803
endpoint: pKd
Schema: pKd number; meaning minus log10 of the concentration expressed in molar units.

Need pKd of YMRERFEPM , thanks.
7.66

----------
Target: HLA-A*02:01
Assay: IEDB peptide-MHC binding, purified MHC/competitive/fluorescence; filed as Kd, often an IC50 or EC50 that approximates it; bounds were set here for any values at or beyond the usual limits of such assays
Conditions: source organism: Orthohantavirus negraense
endpoint: Kd

API: value(readout=Kd, system=HLA-A*02:01) for record RRFTQAIYD
≥ 20 µM

----------
Collected pKd values appear next to each entry.
Biological target: HLA-A*23:01
Assay: IEDB peptide-MHC binding, purified MHC/competitive/radioactivity; filed as Kd, often an IC50 or EC50 that approximates it; bounds were set here for any values at or beyond the usual limits of such assays
Details: source organism: Mammarenavirus brazilense
Here pKd is given on a logarithmic scale as minus log10 of the concentration in mol/L.

YQPDTGNYIL = 5.76

Let us examine a further case.
Param item = LFQLIFFLTL ; retrieve measured pKd.
5.04

----------
Biological target: HLA-A*23:01
Assay: IEDB peptide-MHC binding, purified MHC/direct/fluorescence; filed as Kd, often an IC50 or EC50 that approximates it; bounds were set here for any values at or beyond the usual limits of such assays
Settings: source organism: Zaire ebolavirus
endpoint: Kd

// lookup Kd for LSDLCNFLV
≥ 20 µM

----------
Target: HLA-C*06:02
Experiment: IEDB peptide-MHC binding, purified MHC/direct/fluorescence; filed as Kd, often an IC50 or EC50 that approximates it; bounds were set here for any values at or beyond the usual limits of such assays
Conditions: source organism: Rickettsia felis URRWXCal2
endpoint: Kd

Give its Kd value. Item: RWLPLVSLF
≥ 20 µM

Sourced from the Immune Epitope Database (IEDB)
